Test system: M14
Experiment: Antiproliferative activity against human M14 cells assessed as inhibition of cell growth incubated for 72 hrs by cell-titer glo assay
Format: functional, cell-based
Details: M14, 72 h
measured-quantity: IC50 (µM)

CN1CCN(c2ccc(OC(F)(F)F)c(Nc3ncc4c(n3)-c3c(c(C(N)=O)nn3CCO)CC4)c2)CC1	0.067

* * *

Test: Cmax in male cynomolgus monkey at 5 mg/kg, iv by LC-MS analysis
Type: ADME, organism-based, Macaca fascicularis
Conditions: in vivo
measured-quantity: Cmax (nM)

CN1CCN(c2ccc(OC(F)(F)F)c(Nc3ncc4c(n3)-c3c(c(C(N)=O)nn3CCO)CC4)c2)CC1 [ONVANSERTIB]	3000
